Values were extracted from ChEMBL document CHEMBL5346921.

molecular target: UniProt Q9UGN5
Sequence (Q9UGN5 whole entry): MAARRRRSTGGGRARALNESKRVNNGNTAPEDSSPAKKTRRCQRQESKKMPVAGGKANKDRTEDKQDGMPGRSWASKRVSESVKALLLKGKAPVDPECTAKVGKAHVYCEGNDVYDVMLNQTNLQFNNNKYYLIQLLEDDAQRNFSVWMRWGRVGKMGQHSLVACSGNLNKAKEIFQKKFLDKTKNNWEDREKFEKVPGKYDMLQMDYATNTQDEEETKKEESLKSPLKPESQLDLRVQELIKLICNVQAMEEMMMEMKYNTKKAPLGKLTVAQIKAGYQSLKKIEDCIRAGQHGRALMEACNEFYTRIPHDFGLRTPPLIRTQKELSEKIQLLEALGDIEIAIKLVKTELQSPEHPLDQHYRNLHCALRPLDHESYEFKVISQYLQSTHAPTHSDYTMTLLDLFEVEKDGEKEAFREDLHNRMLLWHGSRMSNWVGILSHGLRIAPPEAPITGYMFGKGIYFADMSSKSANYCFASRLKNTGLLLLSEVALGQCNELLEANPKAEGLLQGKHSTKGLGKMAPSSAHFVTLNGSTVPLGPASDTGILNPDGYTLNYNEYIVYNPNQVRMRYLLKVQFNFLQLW
Test readout: IC50 (nM)
Output spec: scalar in nM, unitless text.

I have this compound here, NC(=O)c1ccccc1OCc1cccc(NC(=O)c2ccc(Cl)cc2)c1 , and I need its recorded IC50.
4.36
